Values from PubChem BioAssay (NCI)

- Test system: NCI-H226 lung
- Test Name: NCI tumour cell line growth inhibition, 48 h
Exercise: state measured TGI for each of the compounds provided.
Use µM as the unit, but write only the number.

For the compound shown here, COc1cc(/C=C2\C(=O)Nc3cc(C)c(O)cc32)cc(OC)c1OC , give the reported TGI.
46.5

// next record CC(=O)O[C@H]1CC[C@@]2(C)C(=CC[C@H]3[C@@H]4CC[C@H](c5cc(C(F)(F)F)n(C(C)=O)n5)[C@@]4(C)CC[C@@H]32)C1
20.8

Another compound to look at: C[Si](C)(OCCS(=O)(=O)O)C1(Cc2cccc3ccccc23)S(=O)(=O)OCCOS1(=O)=O
45.8

And CCOC(=O)C1=CNC(C(=O)OCC)C1c1cccn1-c1ccc(Cl)cc1[N+](=O)[O-] (centres undefined) ?
50

* * *

- System: CAKI-1 renal
- Test Name: NCI tumour cell line growth inhibition, 48 h
Parameter: TGI

// lookup TGI | system=CAKI-1 renal | key= CCSc1sc(=Nc2ccc(N=c3sc(C)c(SC)s3)cc2)sc1-c1ccc(C)cc1
> 100 µM

Next compound: Nc1nc(Cl)c(N)c(NCC2(CO)CC(OCc3ccccc3)C2)n1 (centres undefined)
> 100 µM

Next up: CCOC(=O)N1CCN(c2nc(Nc3cc(C)[nH]n3)c3ccccc3n2)CC1
17.8 µM

Continue with COC(=O)C(Cc1c(C2Nc3ccccc3C2CC(NC(=O)CNC(C)=O)C(=O)OC)[nH]c2ccccc12)NC(=O)CNC(C)=O (centres undefined)
> 100 µM

* * *

- Test system: OVCAR-3 ovarian
- Test Name: NCI tumour cell line growth inhibition, 48 h
Parameter: TGI (µM)
Answer format: numeric, µM implied, no suffix.

Recorded TGI for O=S(=O)(Nc1ccccc1Cl)c1ccc(-c2cnc(C3CC3)o2)cc1 , please?
15.7

Entry CCOC(=O)N1CCN(c2nc(Nc3cc(C)[nH]n3)c3ccccc3n2)CC1 please
37.3

Let us now turn to Clc1ccc(SC(/C=C/NNC2=NC(c3ccccc3)C(c3ccccc3)=NN2)c2ccccc2)cc1 (stereo not drawn)
60.5

One more compound: COc1ccc2nc3c([N+](=O)[O-])ccc4c3c(c2c1)NCCN4CCO
2.91

* * *

- Tested on: SF-539 CNS
- Test Name: NCI tumour cell line growth inhibition, 48 h; in the data active means GI50 below about 0.43 µM; inactive means the rest
Hi! Could you answer with just one of these? active, inactive

Assay result, entry COc1ccc(-c2cn[nH]c2-c2cc(OC)c3c(c2)OCO3)cc1 — outcome?
active

Continue with CNC(=O)c1ccc(N2CCN(Cc3ccc4nc(C)c(=O)[nH]c4c3F)CC2)c(F)n1
inactive

// query: O=C1c2ccccc2-c2c1c1c(=O)[nH]c3ccccc3c1n2Cc1ccccc1
inactive

Okay, and COc1cc(C#Cc2ccc(=O)oc2C#Cc2ccccc2)cc(OC)c1OC ?
inactive

How about Cc1cc(S(=O)(=O)Nc2nc3cscc3c(=O)n2Cc2ccccc2)c(S)cc1Cl ?
inactive

Could you do the same for COc1cc(/C=C2\C(=O)Nc3cc(C)c(O)cc32)cc(OC)c1OC , please?
inactive

Then Cn1cc(C2=C(c3cn(CCCCN)c4ccccc34)C(=O)NC2=O)c2ccccc21 ?
inactive

Moving on to the next molecule: Cc1nc(SCC(=O)Nc2nc(-c3ccc(Cl)cc3)cs2)n(Nc2ccccc2)c1C
inactive

How about this molecule: COC(=O)[C@@H](C)C[C@H](Cc1ccccc1)NC(=O)c1csc(CC[C@H](C(C)C)N(C)C(=O)[C@@H](NC(=O)[C@H]2CCCCN2C)C(C)C)n1
inactive

Same question, [Cl][Hg][Cl] this time
inactive
